# assayComment: Solubility as a function of pH at 20° C.
# Assay type: physicochemical
# conditionDetails: pH 8.7, thermodynamic from solid, water, pH of solution 8.7, anhydrous free base

chemicalStructure | solubility / µg/mL
COCCc1ccc(-c2c(C)nc3c(N4CCOCC4)ccnn23)cn1 | 9

---

# assayComment: Solubility as a function of pH at 20° C.
# Format: physicochemical
# conditionDetails: aqueous buffer, thermodynamic from solid, citrate-NaOH buffer pH 5, pH of solution 4.9, phosphate salt, read-out: Solubility (mg/mL) of compound 1d
propertyMeasured: solubility (mg/mL)

compound | propertyMeasured | u | numericValue
COCCc1ccc(-c2c(C)nc3c(N4CCOCC4)ccnn23)cn1.O=P(O)(O)O [Compound 1d] | solubility | mg/mL | 0.14

---

# assayComment: Solubility as a function of pH at 20° C.
# Type: physicochemical
# conditionDetails: pH 12.9, aqueous buffer, thermodynamic from solid, 0.1N NaOH, pH of solution 12.9, anhydrous free base
propertyMeasured: solubility (µg/mL)

compound | propertyMeasured | numericValue
COCCc1ccc(-c2c(C)nc3c(N4CCOCC4)ccnn23)cn1 [Compound 1] | solubility | 8

---

# assayComment: Solubility as a function of pH at 20° C.
# Format: physicochemical
# conditionDetails: aqueous buffer, thermodynamic from solid, citrate-NaOH—HCl buffer pH 2, pH of solution 2.5, phosphate salt, read-out: Solubility (mg/mL) of compound 1d
propertyMeasured: solubility

chemicalStructure | result
COCCc1ccc(-c2c(C)nc3c(N4CCOCC4)ccnn23)cn1.O=P(O)(O)O | 20.2 mg/mL

---

# assayComment: Solubility as a function of pH at 20° C.
# Type: physicochemical
# conditionDetails: pH 2.5, simulated gastric fluid, thermodynamic from solid, 0.1N HCl, pH of solution 2.5, anhydrous free base
propertyMeasured: solubility (µg/mL)

chemicalStructure | u | numericValue
COCCc1ccc(-c2c(C)nc3c(N4CCOCC4)ccnn23)cn1 | µg/mL | 2500

---

# assayComment: Solubility as a function of pH at 20° C.
# Format: physicochemical
# conditionDetails: pH 2.5, simulated gastric fluid, thermodynamic from solid, 0.01N HCl, pH of solution 2.5, phosphate salt, read-out: Solubility (mg/mL) of compound 1d

chemicalStructure | solubility [mg/mL]
COCCc1ccc(-c2c(C)nc3c(N4CCOCC4)ccnn23)cn1.O=P(O)(O)O | 11.9

---

# assayComment: Solubility as a function of pH at 20° C.
# Format: physicochemical
# conditionDetails: pH 2.1, simulated gastric fluid, thermodynamic from solid, 0.1N HCl, pH of solution 2.1, phosphate salt, read-out: Solubility (mg/mL) of compound 1d

compound | u | solubility
COCCc1ccc(-c2c(C)nc3c(N4CCOCC4)ccnn23)cn1.O=P(O)(O)O [Compound 1d] | mg/mL | 46
